Let's look at some binders and their measured t½.
Biological target: T1, SARS-CoV2 Spike ecto foldon Trimer expressed with a C-terminal myc-myc-hexahistidine (SARS-CoV-2, UniProt P0DTC2 14-1213)
T1 construct: extracellular domain
Assay: SPR Biacore, mAb captured by anti-hFc, 37C
# unit: h | format: bare number

Answered examples (5):
| BINDER | PROPERTY LABEL | UNIT STRING | MEASURED RESULT |
| --- | --- | --- | --- |
| mAb14283 (antibody, V domains shown) VH: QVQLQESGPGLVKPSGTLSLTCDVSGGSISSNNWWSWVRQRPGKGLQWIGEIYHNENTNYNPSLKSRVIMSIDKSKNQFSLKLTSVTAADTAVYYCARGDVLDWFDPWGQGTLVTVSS VL: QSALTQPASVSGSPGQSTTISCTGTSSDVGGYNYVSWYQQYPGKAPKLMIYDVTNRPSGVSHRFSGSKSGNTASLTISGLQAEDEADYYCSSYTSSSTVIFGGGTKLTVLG | t½ | h | 2.63 |
| mAb15159 (antibody, V domains shown) VH: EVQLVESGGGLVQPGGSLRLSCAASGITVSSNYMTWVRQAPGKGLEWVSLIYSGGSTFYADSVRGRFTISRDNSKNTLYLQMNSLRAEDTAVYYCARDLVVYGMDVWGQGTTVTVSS VL: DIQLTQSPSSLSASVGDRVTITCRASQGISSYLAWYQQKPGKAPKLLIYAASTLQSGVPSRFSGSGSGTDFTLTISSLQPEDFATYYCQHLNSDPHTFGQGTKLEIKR | t½ | h | 5.99 |
| mAb14247 (antibody, V domains shown) VH: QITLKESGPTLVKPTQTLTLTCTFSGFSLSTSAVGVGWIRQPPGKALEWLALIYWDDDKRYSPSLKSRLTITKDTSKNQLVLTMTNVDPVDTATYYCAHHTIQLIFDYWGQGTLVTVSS VL: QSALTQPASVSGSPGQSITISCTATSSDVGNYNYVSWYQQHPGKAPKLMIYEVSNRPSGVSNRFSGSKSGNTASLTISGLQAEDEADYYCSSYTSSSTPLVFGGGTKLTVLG | t½ | h | 4.08 |
| mAb14234 (antibody, V domains shown) VH: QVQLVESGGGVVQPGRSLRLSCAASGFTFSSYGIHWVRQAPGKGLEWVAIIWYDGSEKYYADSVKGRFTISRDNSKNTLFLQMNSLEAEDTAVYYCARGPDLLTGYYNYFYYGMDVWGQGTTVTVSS VL: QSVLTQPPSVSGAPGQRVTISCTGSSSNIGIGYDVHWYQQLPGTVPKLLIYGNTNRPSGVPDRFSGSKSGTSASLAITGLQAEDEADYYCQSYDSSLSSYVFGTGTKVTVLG | t½ | h | 2.69 |
| mAb14315 (antibody, V domains shown) VH: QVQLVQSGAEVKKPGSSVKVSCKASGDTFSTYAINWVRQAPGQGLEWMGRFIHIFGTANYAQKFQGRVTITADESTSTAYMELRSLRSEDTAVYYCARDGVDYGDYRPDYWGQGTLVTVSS VL: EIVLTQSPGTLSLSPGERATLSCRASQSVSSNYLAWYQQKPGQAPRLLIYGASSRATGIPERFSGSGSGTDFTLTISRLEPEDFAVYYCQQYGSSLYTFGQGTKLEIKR | t½ | h | 5.93 |

Value of t½ reported for the binder mAb15164 (antibody, V domains shown) VH: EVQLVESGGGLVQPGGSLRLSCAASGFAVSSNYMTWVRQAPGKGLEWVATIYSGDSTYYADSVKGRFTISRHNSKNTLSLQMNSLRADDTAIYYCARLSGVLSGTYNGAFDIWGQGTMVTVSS VL: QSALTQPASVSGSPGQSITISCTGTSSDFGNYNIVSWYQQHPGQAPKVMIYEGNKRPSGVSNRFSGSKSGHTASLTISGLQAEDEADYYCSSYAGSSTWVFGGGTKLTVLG is 1.4

Value of t½ reported for the binder mAb14285 (antibody, V domains shown) VH: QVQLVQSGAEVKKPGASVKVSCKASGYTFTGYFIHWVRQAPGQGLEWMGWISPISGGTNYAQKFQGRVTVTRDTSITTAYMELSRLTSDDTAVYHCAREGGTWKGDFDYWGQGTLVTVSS VL: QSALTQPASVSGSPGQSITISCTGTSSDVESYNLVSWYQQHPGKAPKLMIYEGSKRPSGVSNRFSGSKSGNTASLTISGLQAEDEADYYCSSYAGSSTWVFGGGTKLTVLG is 4.61

Value of t½ reported for the binder mAb14230 (antibody, V domains shown) VH: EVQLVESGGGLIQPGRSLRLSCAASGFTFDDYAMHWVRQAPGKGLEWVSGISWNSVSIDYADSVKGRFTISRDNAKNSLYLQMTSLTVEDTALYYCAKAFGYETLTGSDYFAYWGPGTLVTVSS VL: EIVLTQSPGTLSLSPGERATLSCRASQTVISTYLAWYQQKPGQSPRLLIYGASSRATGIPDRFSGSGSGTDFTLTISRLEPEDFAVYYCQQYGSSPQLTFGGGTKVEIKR is 2.14

Value of t½ reported for the binder mAb15170 (antibody, V domains shown) VH: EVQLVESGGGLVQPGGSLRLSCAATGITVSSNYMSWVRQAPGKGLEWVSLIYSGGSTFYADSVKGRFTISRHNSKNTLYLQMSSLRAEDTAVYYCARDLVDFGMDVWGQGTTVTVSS VL: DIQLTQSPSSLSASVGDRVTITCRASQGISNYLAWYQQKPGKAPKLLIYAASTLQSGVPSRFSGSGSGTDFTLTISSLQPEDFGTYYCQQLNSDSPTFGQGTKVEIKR is 19.2

Value of t½ reported for the binder mAb15158 (antibody, V domains shown) VH: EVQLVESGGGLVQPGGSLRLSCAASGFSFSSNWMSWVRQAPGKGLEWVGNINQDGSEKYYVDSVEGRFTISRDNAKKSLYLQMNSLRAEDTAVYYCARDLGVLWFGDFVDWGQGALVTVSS VL: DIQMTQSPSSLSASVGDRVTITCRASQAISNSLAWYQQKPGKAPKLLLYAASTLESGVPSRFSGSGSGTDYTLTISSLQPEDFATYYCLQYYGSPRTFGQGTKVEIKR is 4.73
